- System: kochia (KCHSC)
- protocol notes: Postemergence greenhouse trial, % visual injury on kochia
- Type: in vivo, Kochia scoparia
- assay conditions: Bassia scoparia, post-emergence; KCHSC; compound 70 g/ha, CQC-m 0; read-out: % visual injury, Ob
Overview of reported pest or weed control at 70 g/ha across a group of compounds:
metric: pest or weed control at 70 g/ha (%)

CO/C=N/c1c(F)c(-c2ccc3cc[nH]c3c2F)nc(C(=O)OC)c1Cl; 100
CCCCOC(=O)c1nc(-c2ccc3cc[nH]c3c2F)c(F)c(N)c1Cl; 100
COC(=O)c1nc(-c2ccc3cc[nH]c3c2F)c(F)c(/N=C/N(C)C)c1Cl; 90
COC(=O)c1nc(-c2ccc3cc[nH]c3c2F)c(F)c(N)c1OC; 95

====

plant injury at 35 g/ha by entry:
- Test system: winter rape (BRSNW)
- protocol notes: Postemergence greenhouse trial, % visual injury on winter rape
- Format: in vivo, Brassica napus
- assay conditions: Brassica napus, post-emergence; alone, 35 g/ha; read-out: % visual injury, Ob
metric: plant injury at 35 g/ha (%)

CCCCCC(C)OC(=O)COc1ccc(Cl)c2cccnc12 (stereo not shown) [CQC-m, cloquintocet-mexyl, reference compound]; 0
Nc1c(F)c(-c2ccc3cc[nH]c3c2F)nc(C(=O)OCc2ccccc2)c1Cl [compound 2]; 100
COC(=O)c1nc(-c2ccc3ccn(C(=O)C(C)C)c3c2F)c(F)c(N)c1Cl [compound 4]; 97
Nc1c(F)c(-c2ccc3cc[nH]c3c2F)nc(C(=O)O)c1Cl [compound 1]; 99
COCC(=O)n1ccc2ccc(-c3nc(C(=O)OC)c(Cl)c(N)c3F)c(F)c21 [compound 6]; 75
COC(=O)c1nc(-c2ccc3ccn(C(C)=O)c3c2F)c(F)c(N)c1Cl [compound 3]; 30
COC(=O)c1nc(-c2ccc3ccn(C(=O)C(C)(C)C)c3c2F)c(F)c(N)c1Cl [compound 5]; 97

====

% visual injury, Ob values by entry
- Test system: spring wheat (TRZAS)
- protocol notes: Postemergence greenhouse trial, % visual injury on spring wheat
- Assay type: in vivo, Triticum aestivum
- assay conditions: TRZAS; 4.375 g/ha, applied alone
metric: % visual injury, Ob (%)

Nc1c(F)c(-c2ccc3scnc3c2)nc(C(=O)O)c1Cl; 0
Nc1c(F)c(-c2ccc3ccoc3c2)nc(C(=O)O)c1Cl; 0
COC(=O)c1nc(-c2ccc3sccc3c2)c(F)c(N)c1Cl; 10
CCCCCC(C)OC(=O)COc1ccc(Cl)c2cccnc12 (centres unmarked) [CQC-m, cloquintocet-mexyl, reference compound]; 0
COc1c(N)nc(-c2ccc3sccc3c2)nc1C(=O)O; 0
